assayExplanation: Clinical study in healthy adult subjects: pharmacokinetics
Format: in vivo, human
testParameters: human, plasma, single oral dose 5 mg, mean (%CV), read-out: Vz/F
attributeMeasured: Vd/F (L)
Field: numeric (L). Do not append units.

Lookup: # Vd/F lookup, item C[C@H](Nc1ncnc2[nH]cnc12)c1cc2cccc(Cl)c2c(=O)n1-c1ccccc1 [Compound 292]
Found: 53

* * *

Quick reference: EC50 of the listed items.
System: B cell
assayExplanation: B cell proliferation
Assay type: cell-based

[
  {
    "compound": "COc1ccccc1-n1c(Cn2nc(-c3cccc(O)c3)c3c(N)ncnc32)cc2cccc(C)c2c1=O",
    "observed": "< 0.1 µM"
  }
]

Next up:
Lookup: # EC50 lookup, item Cc1cccc2cc(C(C)Nc3ncnc4[nH]cnc34)n(C3CC3)c(=O)c12 (centres unmarked)
Found: < 0.1 µM

* * *

Tested on: B cell
assayExplanation: B cell proliferation
Format: cell-based
pEC50: −log10 of the molar value.
Quick reference: pEC50 of the listed items.

[
  {
    "molecule": "CCC(Nc1ncnc2[nH]cnc12)c1cc2cccc(C)c2c(=O)n1-c1ccccc1 (stereo not drawn) [Compound 211]",
    "observed": "> 7.00"
  },
  {
    "molecule": "Cc1ccccc1-n1c(Cn2nc(-c3cnc4[nH]ccc4c3)c3c(N)ncnc32)cc2cccc(C)c2c1=O [Compound 48]",
    "observed": "> 7.00"
  },
  {
    "molecule": "Cc1ccccc1-n1c(Cn2nc(/C=C/C(N)=O)c3c(N)ncnc32)cc2cccc(C)c2c1=O [Compound 174]",
    "observed": "> 7.00"
  },
  {
    "molecule": "Cc1cccc2cc(Cn3nc(-c4cc(O)cc(F)c4)c4c(N)ncnc43)n(-c3ccccc3O)c(=O)c12 [Compound 90]",
    "observed": "> 7.00"
  },
  {
    "molecule": "Cc1ccccc1-n1c(Cn2nc(-c3cccc(O)c3)c3c(N)ncnc32)cc2cccc(C)c2c1=O [Compound 13]",
    "observed": "> 7.00"
  },
  {
    "molecule": "CC(C)n1c(Cn2nc(-c3cc(O)cc(F)c3)c3c(N)ncnc32)cc2cccc(Cl)c2c1=O [Compound 138]",
    "observed": "> 7.00"
  },
  {
    "molecule": "Cc1cccnc1-n1c(Cn2nc(-c3cc(O)cc(F)c3)c3c(N)ncnc32)cc2cccc(C)c2c1=O [Compound 16]",
    "observed": "> 7.00"
  },
  {
    "molecule": "Cc1ccccc1-n1c(Cn2nc(-c3ccc4oc(N)nc4c3)c3c(N)ncnc32)cc2cccc(C)c2c1=O [Compound 151]",
    "observed": "> 7.00"
  },
  {
    "molecule": "Cc1cccc2cc([C@H](C)Nc3ncnc4[nH]cc(Br)c34)n(-c3ccccc3)c(=O)c12 [Compound 257]",
    "observed": "> 7.00"
  },
  {
    "molecule": "Cc1ccccc1-n1c(Cn2nc(-c3cnn(CCO)c3)c3c(N)ncnc32)cc2cccc(C)c2c1=O [Compound 163]",
    "observed": "> 6.00"
  }
]

Lookup: # pEC50 lookup, item CC(C)n1c(Cn2nc(-c3cc(O)cc(F)c3)c3c(N)ncnc32)cc2ccccc2c1=O [Compound 136]
Found: > 7.00

Lookup: Another: Cc1cccc2cc(Cn3nc(-c4cn[nH]c4)c4c(N)ncnc43)n(-c3ccccc3C(F)(F)F)c(=O)c12 [Compound 214]
Found: > 7.00

Lookup: Another: Cc1ccccc1-n1c(Cn2nc(-c3nn[nH]n3)c3c(N)ncnc32)cc2cccc(C)c2c1=O [Compound 207]
Found: > 5.00

Lookup: Another: Cc1cccc2cc([C@H](C)Nc3ncnc4[nH]cc(F)c34)n(-c3ccccc3)c(=O)c12 [Compound 254]
Found: > 7.00

Lookup: Another: Cc1cccc2cc(Cn3nc(-c4cccc(Cl)c4)c4c(N)ncnc43)n(-c3ccccc3F)c(=O)c12 [Compound 38]
Found: < 5.00

These entries and their values trace back to patent US20140120060A1.
